Provide the recorded median fluorescence for the entries that follow.
Target: T1, FZD5 cysteine-rich domain (CRD), MYC-tagged and GPI-anchored on CHO cells (human, UniProt Q13467 29-156, GPI anchor)
T1 construct: also called FZD5 CRD; CHO-myc-FZDGPI; not shown: MYC tag and GPI anchor signal
T1 sequence: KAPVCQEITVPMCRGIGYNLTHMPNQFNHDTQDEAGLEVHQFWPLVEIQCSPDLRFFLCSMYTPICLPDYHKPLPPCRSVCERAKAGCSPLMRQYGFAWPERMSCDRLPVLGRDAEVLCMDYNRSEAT
Test: flow cytometry, CHO-CRD cells;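 note: flow cytometry of Fab binding to CHO cells overexpressing a Frizzled CRD, with binding defined as median fluorescence over twice that of CHO cells lacking any Frizzled CRD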

In the examples that follow, each entry is paired with its recorded median fluorescence.
Fab-2931 (Fab, V domains shown, Fab; also called Fv-2931) VH: EVQLVESGGGLVQPGGSLRLSCAASGFNLSYSSMHWVRQAPGKGLEWVAYISPYSGSTYYADSVKGRFTISADTSKNTAYLQMNSLRAEDTAVYYCARGSYWYVGGGWWVSGHGGMDYWGQGTLVTVSS VL: DIQMTQSPSSLSASVGDRVTITCRASQSVSSAVAWYQQKPGKAPKLLIYSASSLYSGVPSRFSGSRSGTDFTLTISSLQPEDFATYYCQQSSYSLITFGQGTKVEIK ... 28.1
Fab-2899 (Fab, V domains shown, Fab; also called Fv-2899) VH: EVQLVESGGGLVQPGGSLRLSCAASGFNLYYYYMHWVRQAPGKGLEWVASIYPSSGSTSYADSVKGRFTISADTSKNTAYLQMNSLRAEDTAVYYCARGALDYWGQGTLVTVSS VL: DIQMTQSPSSLSASVGDRVTITCRASQSVSSAVAWYQQKPGKAPKLLIYSASSLYSGVPSRFSGSRSGTDFTLTISSLQPEDFATYYCQQWYSSYGLITFGQGTKVEIK ... 33.7

Give the value of median fluorescence reported for the following: Fab-2912 (Fab, V domains shown, Fab; also called Fv-2912) VH: EVQLVESGGGLVQPGGSLRLSCAASGFNISYSYIHWVRQAPGKGLEWVASISSSSGYTSYADSVKGRFTISADTSKNTAYLQMNSLRAEDTAVYYCARTVRGSKKPYFSGWAMDYWGQGTLVTVSS VL: DIQMTQSPSSLSASVGDRVTITCRASQSVSSAVAWYQQKPGKAPKLLIYSASSLYSGVPSRFSGSRSGTDFTLTISSLQPEDFATYYCQQFYFPYLITFGQGTKVEIK 32.2
